Kindly state Classification for each of the entries shown.
target: T1, GST-FLJ 10324 PDZ domain 1 [GST: P08515]
T1 chain: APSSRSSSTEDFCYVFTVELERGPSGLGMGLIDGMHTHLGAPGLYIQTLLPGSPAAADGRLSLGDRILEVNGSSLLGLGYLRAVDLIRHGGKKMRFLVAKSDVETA
test.protocol: G' assay; further: key of the grades not given here
Numbers only, in A450 class.

Some binders with known Classification results, for comparison:
binder | readout.name | observed.value
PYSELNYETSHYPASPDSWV (modifications not checked) [catenin - delta 2] | Classification | 3
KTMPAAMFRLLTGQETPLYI (modifications not checked) [MINT-2] | Classification | 4
AWDDSARAAGGQGLHVTAL (modifications not checked) [LPAP] | Classification | 1

Go through the items and report each one's Classification.
1. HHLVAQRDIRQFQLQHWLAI (modifications not checked) [noradrenaline transporter]
2. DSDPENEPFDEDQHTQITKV (modifications not checked) [PTEN]

[3, 1]

Could you report Classification for every entry in the following list?
1. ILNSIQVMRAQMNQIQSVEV (modifications not checked) [ephrin B2]
2. TFAAGFNSTGLPHSTTRV (modifications not checked) [Neuroligin]

1. 2
2. 1
